Reported pKd values for a set of compounds
Molecular target: human OX2 receptor (Homo sapiens)
Sequence (O43614 whole entry): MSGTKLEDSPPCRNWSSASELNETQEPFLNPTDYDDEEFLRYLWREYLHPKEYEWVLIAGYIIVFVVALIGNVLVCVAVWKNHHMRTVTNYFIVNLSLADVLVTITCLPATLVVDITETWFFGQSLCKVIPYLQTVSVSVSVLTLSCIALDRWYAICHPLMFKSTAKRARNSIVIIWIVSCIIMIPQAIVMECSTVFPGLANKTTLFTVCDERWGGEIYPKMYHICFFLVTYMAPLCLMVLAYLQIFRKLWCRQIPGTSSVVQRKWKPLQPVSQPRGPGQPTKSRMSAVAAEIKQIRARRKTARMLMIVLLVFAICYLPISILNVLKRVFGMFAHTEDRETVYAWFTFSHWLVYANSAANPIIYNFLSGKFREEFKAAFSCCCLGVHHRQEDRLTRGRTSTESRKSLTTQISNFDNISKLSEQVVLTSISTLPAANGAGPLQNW
Assay: Calcium mobilization Ke assay, OX2
pKd: −log10 of the molar value.
READOUT_NAME: pKd

>>> result("COc1cc2c(cc1NS(C)(=O)=O)C(Cc1ccc(OC)c(OC)c1)N(CC(=O)NCc1ccccc1)CC2 (stereo not shown) [Compound 34d]")
"< 5.00"
>>> result("CCCOc1cc2c(cc1OC)CCN(CC(=O)NCc1ccccc1)C2Cc1ccc(N(C)C)cc1 (stereo not shown) [Compound 12d]")
"< 5.00"
>>> result("COc1cc2c(cc1OCC(F)(F)F)C(Cc1ccc(C)c(C)c1)N(CC(=O)NCc1cccnc1)CC2 (stereo not shown) [Compound 15b]")
5.87
>>> result("CCCC(=O)Nc1cc2c(cc1OC)CCN(CC(=O)NCc1ccccc1)C2Cc1ccc(OC)c(OC)c1 (stereo not shown) [Compound 34e]")
"< 5.00"
